Parameter: pIC50. Scope: all listed entries.
- target-desc: AHR (UniProt P35869)
- measurement-protocol: DRE-Luciferase Reporter Assay (Alternate Method), Example 1B
- test-settings: concentration which inhibits half of the luciferase activity induced by AHR activating ligand; DRE-luciferase reporter cell line
pIC50: −log10 of the molar value.
experimental-endpoint: pIC50

[[record]]
molecule = "C[C@H](N)c1cnn2c(N[C@@H]3CCc4[nH]c5ccccc5c4C3)nc(-c3cncc(F)c3)nc12 [Compound I-32a]"
test_value = "> 6.30"

[[record]]
molecule = "[2H]C([2H])([2H])C(c1cnn2c(N[C@@H]3CCc4[nH]c5ccccc5c4C3)nc(-c3cncc(F)c3)nc12)C([2H])([2H])[2H] [Compound I-59]"
test_value = "> 6.30"

[[record]]
molecule = "COc1cncc(-c2nc(N[C@@H]3CCc4[nH]c5ccccc5c4C3)n3ncc(C(C)C)c3n2)c1 [Compound I-3]"
test_value = "< 5.82"

[[record]]
molecule = "CC(C)c1cnn2c(N[C@H]3CNc4ccccc4C3)nc(-c3cncc(F)c3)nc12 [Compound I-35b]"
test_value = "6.00 to 6.30"

[[record]]
molecule = "CC(C)c1cnn2c(NCCCO)nc(-c3cncc(F)c3)nc12 [Compound I-43]"
test_value = "< 5.82"

[[record]]
molecule = "C[C@H](NCC1CC1)c1cnn2c(N[C@@H]3CCc4[nH]c5ccccc5c4C3)nc(-c3cncc(F)c3)nc12 [Compound I-20a]"
test_value = "5.82 to 6.00"

[[record]]
molecule = "CC(C)c1cnn2c(N[C@H]3CCc4[nH]c5ccccc5c4C3)nc(-c3cncc(F)c3)nc12 [Compound I-47]"
test_value = "> 6.30"

[[record]]
molecule = "O[C@@H](c1cnn2c(N[C@@H]3CCc4[nH]c5ccccc5c4C3)nc(-c3cncc(F)c3)nc12)C(F)(F)F [Compound I-41b]"
test_value = "> 6.30"

[[record]]
molecule = "CC(C)c1cnn2c(N[C@@H]3CCc4ccccc4C3)nc(-c3cncc(F)c3)nc12 [Compound I-48a]"
test_value = "< 5.82"

[[record]]
molecule = "CC(C)c1cnn2c(N[C@@H]3CCc4c(cc[nH]c4=O)C3)nc(-c3cncc(F)c3)nc12 [Compound I-66a]"
test_value = "< 5.82"

[[record]]
molecule = "CC(C)(O)c1cnn2c(N[C@@H]3CCc4[nH]c5ccccc5c4C3)nc(-c3cncc(F)c3)nc12 [Compound I-9]"
test_value = "> 6.30"

[[record]]
molecule = "CC(C)c1cnn2c(N[C@H]3CCc4c(ccnc4N)C3)nc(-c3cncc(F)c3)nc12 [Compound I-63b]"
test_value = "< 5.82"

[[record]]
molecule = "C[C@@H](NCC1CC1)c1cnn2c(N[C@@H]3CCc4[nH]c5ccccc5c4C3)nc(-c3cncc(F)c3)nc12 [Compound I-20b]"
test_value = "> 6.30"

[[record]]
molecule = "CC(C)c1cnn2c(N[C@@H]3CCc4[nH]c5cc(O)ccc5c4C3)nc(-c3cncc(F)c3)nc12 [Compound I-27a]"
test_value = "< 5.82"

[[record]]
molecule = "CC(C)c1cnn2c(N[C@H]3CCc4[nH]c5cccnc5c4C3)nc(-c3cncc(F)c3)nc12 [Compound I-8a]"
test_value = "5.82 to 6.00"

[[record]]
molecule = "CC(C)c1cnn2c(N[C@@H]3CCc4[nH]c5ccc(O)cc5c4C3)nc(-c3cncc(F)c3)nc12 [Compound I-34b]"
test_value = "< 5.82"

[[record]]
molecule = "CC(C)c1cnn2c(N[C@@H]3CCc4[nH]c5ccccc5c4C3)nc(-c3ccn(C)c(=O)c3)nc12 [Compound I-1]"
test_value = "< 5.82"

[[record]]
molecule = "Fc1cncc(-c2nc(N[C@@H]3CCc4[nH]c5ccccc5c4C3)n3nc4c(c3n2)CCCC4)c1 [Compound I-30]"
test_value = "6.00 to 6.30"

[[record]]
molecule = "CC(C)c1cnn2c(N[C@@H]3CCc4[nH]c5c(O)cccc5c4C3)nc(-c3cncc(F)c3)nc12 [Compound I-24a]"
test_value = "< 5.82"

[[record]]
molecule = "Fc1cncc(-c2nc(N[C@@H]3CCc4[nH]c5ccccc5c4C3)n3nc4c(c3n2)CNCC4)c1 [Compound I-50]"
test_value = "< 5.82"

[[record]]
molecule = "CC(C)c1cnn2c(N[C@@H]3CCc4[nH]c5ccccc5c4C3)nc(-n3cccn3)nc12 [Compound I-21]"
test_value = "< 5.82"

[[record]]
molecule = "CC(C)c1cnn2c(N[C@@H]3CCc4[nH]ncc4C3)nc(-c3cncc(F)c3)nc12 [Compound I-7a]"
test_value = "< 5.82"

[[record]]
molecule = "CC(C)c1cnn2c(N[C@H]3CNc4ncccc4C3)nc(-c3cncc(F)c3)nc12 [Compound I-37b]"
test_value = "> 6.30"

[[record]]
molecule = "C[C@H](NC(=O)N1CCOCC1)c1cnn2c(N[C@@H]3CCc4[nH]c5ccccc5c4C3)nc(-c3cncc(F)c3)nc12 [Compound I-56a]"
test_value = "> 6.30"

[[record]]
molecule = "CC(C)c1cnn2c(N[C@@H]3CCc4[nH]c5cccc(O)c5c4C3)nc(-c3cncc(F)c3)nc12 [Compound I-29b]"
test_value = "< 5.82"

[[record]]
molecule = "CN1CCN(c2cnn3c(N[C@@H]4CCc5[nH]c6ccccc6c5C4)nc(-c4cncc(F)c4)nc23)CC1 [Compound I-52]"
test_value = "6.00 to 6.30"

[[record]]
molecule = "Cc1nccn1-c1nc(N[C@@H]2CCc3[nH]c4ccccc4c3C2)n2ncc(C(C)C)c2n1 [Compound I-19]"
test_value = "< 5.82"

[[record]]
molecule = "COc1ccnc2c(N[C@@H]3CCc4[nH]c5ccccc5c4C3)nc(-c3cncc(F)c3)nc12 [Compound I-23]"
test_value = "> 6.30"

[[record]]
molecule = "CNc1cnn2c(N[C@@H]3CCc4[nH]c5ccccc5c4C3)nc(-c3cncc(F)c3)nc12 [Compound I-51]"
test_value = "> 6.30"


// provenance: patent US20220144839A1
